- System Under Test: T1, CD22 (human, UniProt P20273 20-847)
- T1 construct: whole, on cells; also called native CD22(αβ) on Daudi cells; CD22 antigen
- T1 sequence (looked up): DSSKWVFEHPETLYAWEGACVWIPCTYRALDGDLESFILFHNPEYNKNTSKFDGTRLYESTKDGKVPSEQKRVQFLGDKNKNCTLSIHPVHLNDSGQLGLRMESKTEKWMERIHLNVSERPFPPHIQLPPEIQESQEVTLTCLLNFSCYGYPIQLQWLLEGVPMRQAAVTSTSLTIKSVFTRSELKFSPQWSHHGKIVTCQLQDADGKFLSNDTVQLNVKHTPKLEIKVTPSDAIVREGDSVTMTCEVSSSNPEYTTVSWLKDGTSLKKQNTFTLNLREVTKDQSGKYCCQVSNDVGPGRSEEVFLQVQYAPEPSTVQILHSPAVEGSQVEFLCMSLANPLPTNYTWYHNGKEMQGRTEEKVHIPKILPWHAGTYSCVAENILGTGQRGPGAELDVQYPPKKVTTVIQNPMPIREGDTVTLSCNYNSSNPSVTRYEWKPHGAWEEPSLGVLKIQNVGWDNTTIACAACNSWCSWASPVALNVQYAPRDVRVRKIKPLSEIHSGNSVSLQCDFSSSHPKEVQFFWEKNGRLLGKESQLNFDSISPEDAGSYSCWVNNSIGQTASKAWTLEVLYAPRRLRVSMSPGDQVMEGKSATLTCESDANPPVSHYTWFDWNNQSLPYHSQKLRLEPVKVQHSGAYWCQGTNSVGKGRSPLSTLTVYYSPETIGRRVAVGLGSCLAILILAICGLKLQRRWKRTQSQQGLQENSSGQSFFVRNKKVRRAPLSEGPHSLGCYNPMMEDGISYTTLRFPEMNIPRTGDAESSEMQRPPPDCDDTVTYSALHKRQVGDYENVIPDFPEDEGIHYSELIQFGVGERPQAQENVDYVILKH
- Protocol Notes: monoclonal phage FACS on Daudi cells
Assay Endpoint: binding result

Binder: B5 (scFv displayed on phage) (scFv, V domains shown, also called mutant B5; L-CDR1 HG mutant of HA22) VH: EVQLVESGGGLVKPGGSLKLSCAASGFAFSIYDMSWVRQTPEKRLEWVAYISSGGGTTYYPDTVKGRFTISRDNAKNTLYLQMSSLKSEDTAMYYCARHSGYGTHWGVLFAYWGQGTLVTVSA VL: DIQMTQTTSSLSASLGDRVTISCRASQDIHGYLNWYQQKPDGTVKLLIYYTSILHSGVPSRFSGSGSGTDYSLTISNLEQEDFATYFCQQGNTLPWTFGGGTKLEIK
Assay Endpoint: binding result
Value Reported: binds

Binder: B8 (scFv displayed on phage) (scFv, V domains shown, also called L-CDR1 RG mutant of HA22) VH: EVQLVESGGGLVKPGGSLKLSCAASGFAFSIYDMSWVRQTPEKRLEWVAYISSGGGTTYYPDTVKGRFTISRDNAKNTLYLQMSSLKSEDTAMYYCARHSGYGTHWGVLFAYWGQGTLVTVSA VL: DIQMTQTTSSLSASLGDRVTISCRASQDIRGYLNWYQQKPDGTVKLLIYYTSILHSGVPSRFSGSGSGTDYSLTISNLEQEDFATYFCQQGNTLPWTFGGGTKLEIK
Assay Endpoint: binding result
Value Reported: binds

Binder: D8 (scFv displayed on phage) (scFv, V domains shown, also called L-CDR1 AR mutant of HA22) VH: EVQLVESGGGLVKPGGSLKLSCAASGFAFSIYDMSWVRQTPEKRLEWVAYISSGGGTTYYPDTVKGRFTISRDNAKNTLYLQMSSLKSEDTAMYYCARHSGYGTHWGVLFAYWGQGTLVTVSA VL: DIQMTQTTSSLSASLGDRVTISCRASQDIARYLNWYQQKPDGTVKLLIYYTSILHSGVPSRFSGSGSGTDYSLTISNLEQEDFATYFCQQGNTLPWTFGGGTKLEIK
Assay Endpoint: binding result
Value Reported: binds
